Reported Percentage inhibition of ligand binding, Adrenergic α2A values for the following compounds.
- System name: human recombinant adrenergic α2A receptor (Homo sapiens, UniProt P08913)
- Construct: expressed in transfected cells; host or cells: insect Sf9 cells
- Sequence (P08913 whole entry): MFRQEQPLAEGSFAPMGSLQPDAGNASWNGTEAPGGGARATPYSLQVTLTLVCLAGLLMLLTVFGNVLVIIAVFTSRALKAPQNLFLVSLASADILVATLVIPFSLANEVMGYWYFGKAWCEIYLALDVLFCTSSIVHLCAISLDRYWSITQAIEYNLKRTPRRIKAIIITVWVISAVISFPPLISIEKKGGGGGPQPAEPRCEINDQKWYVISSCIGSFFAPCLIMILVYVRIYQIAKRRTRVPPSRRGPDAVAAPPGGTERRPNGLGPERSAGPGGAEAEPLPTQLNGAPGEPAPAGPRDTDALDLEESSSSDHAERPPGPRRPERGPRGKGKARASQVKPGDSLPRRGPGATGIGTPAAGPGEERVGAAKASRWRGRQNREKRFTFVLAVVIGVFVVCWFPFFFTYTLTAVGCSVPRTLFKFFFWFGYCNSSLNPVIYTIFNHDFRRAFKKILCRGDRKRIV
- Assay info: Radioligand binding, adrenergic α2A ([3H]MK-912)
- Condition details: compound at 0.1 μM; [3H]MK-912; repeat assays, each datapoint shown; 0.1 µM
Measured metric: Percentage inhibition of ligand binding, Adrenergic α2A (%)

# Compound, Test value
records = [
    ("Cc1ccc2c(c1)c1c(n2CC(O)c2cccnc2)CN(C)CC1 (single isomer, unassigned) [43a]", 9),
    ("CC(=O)c1ccc2c(c1)c1c(n2CC(O)c2ccncc2)CCN(C)C1 (single isomer, unassigned) [49b]", 6),
    ("Cc1ccc2c(c1)c1c(n2CC(O)c2ccncc2)CCN(C)CC1 (stereo not drawn) [compound 13]", 18),
    ("Cc1ccc2c(c1)c1c(n2CC(O)c2cccnc2)CCN(CCO)C1 (single isomer, unassigned) [21a]", "−1"),
    ("CN1CCc2c(n(CC(O)c3ccncc3)c3ccc(Cl)cc23)CC1 (stereo not drawn) [compound 15]", 19),
    ("OC(Cn1c2c(c3cccnc31)CN1CCCC1C2)c1ccncc1 (single isomer, unassigned) [37d]", 8),
    ("Cc1cnc2c(c1)c1c(n2CCc2ccc(C)nc2)CCN2CCCC12 (single isomer, unassigned) [74b]", 14),
    ("Cc1ccc2c(c1)c1c(n2CC(OC(=O)C(C)C)c2ccncc2)CCN(C)C1 (single isomer, unassigned) [54a]", 30),
    ("OC(Cn1c2c(c3cccnc31)CN1CCCC1C2)c1ccncc1 (single isomer, unassigned) [37a]", 18),
]

====

- System name: human recombinant adrenergic α2B receptor (Homo sapiens, UniProt P18089)
- Construct: expressed in transfected cells; host or cells: CHO-K1
- Sequence (P18089 whole entry): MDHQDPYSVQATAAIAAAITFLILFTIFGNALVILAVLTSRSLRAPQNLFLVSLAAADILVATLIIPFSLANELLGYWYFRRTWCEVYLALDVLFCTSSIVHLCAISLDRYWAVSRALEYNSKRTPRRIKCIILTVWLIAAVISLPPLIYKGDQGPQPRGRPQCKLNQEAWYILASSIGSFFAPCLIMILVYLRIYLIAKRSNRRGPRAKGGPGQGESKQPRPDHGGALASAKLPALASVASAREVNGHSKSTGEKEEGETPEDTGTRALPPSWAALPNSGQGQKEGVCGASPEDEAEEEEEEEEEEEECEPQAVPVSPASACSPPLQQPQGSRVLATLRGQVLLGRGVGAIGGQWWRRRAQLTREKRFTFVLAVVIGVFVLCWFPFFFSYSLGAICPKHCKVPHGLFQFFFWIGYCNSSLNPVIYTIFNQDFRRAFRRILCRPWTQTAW
- Assay info: Radioligand binding, adrenergic α2B ([3H]Rauwolscine)
- Condition details: compound at 0.03 μM; [3H]Rauwolscine; repeat datapoints each shown; 0.03 µM
Measured metric: Percentage inhibition of ligand binding, Adrenergic α2B (0.03 μM) (%)

# Molecule, Test value
rows = [
    ("Cc1ccc2c(c1)c1c(n2CC(O)c2ccc(C#N)nc2)CCN(C)C1 (single isomer, unassigned) [140b]", 52),
    ("Cc1cnc2c(c1)c1c(n2CC(O)c2ccncc2)CCN2CCCC12 (single isomer, unassigned) [IV-209c]", 102),
    ("Cc1cnc2c(c1)c1c(n2CC(C)(O)c2ccc(C(F)(F)F)nc2)CCN(C)C1 (single isomer, unassigned) [II-108a]", 27),
    ("Cc1ccc2c(c1)c1c(n2CC(N=[N+]=[N-])c2ccncc2)CCN(C)C1 (racemic)", 102),
    ("Cc1ccc2c(c1)c1c(n2CC(C)(O)c2cccnc2)CC(C)N(C)C1 (single isomer, unassigned) [II-146d]", 16),
    ("Cc1ccc2c(c1)c1c(n2CC(C)(OC(=O)C(C)C)c2cccnc2)CCN(C)C1 (single isomer, unassigned) [146b]", 63),
    ("Cc1ccc2c(c1)c1c(n2CC(O)c2ccc(C#N)cc2)CCN(C)C1 (single isomer, unassigned) [142a]", 71),
    ("Cc1ccc2c(c1)c1c(n2CC(C)(OCC(=O)O)c2cccnc2)CCN(C)C1 (single isomer, unassigned) [V-14b]", 0),
    ("CC(O)(Cn1c2c(c3cc(Cl)ccc31)CNCC2)c1cccnc1 (single isomer, unassigned) [175b]", 4),
    ("Cc1cc2c3c(n(CC(C)(O)c4cccnc4)c2cc1Cl)CCN(C)C3 (single isomer, unassigned) [II-123a]", 62),
    ("CNC(Cn1c2c(c3cc(C)ccc31)CN(C)CC2)c1ccncc1 (single isomer, unassigned) [151b]", 37),
    ("Cc1cnc2c(c1)c1c(n2CCc2cnc(C)nc2)CCN2CCCC12 (single isomer, unassigned) [IV-93b]", 44),
    ("Cc1cnc2c(c1)c1c(n2CC(C)(O)c2ccc(F)cc2)CCN(C)C1 (single isomer, unassigned) [138b]", 25),
    ("Cc1ccc2c(c1)c1c(n2CC(CC(O)C(C)(C)C)c2ccncc2)CCN(C)C1 (single isomer, unassigned) [II-227d]", 26),
    ("CCN1CCc2c(c3cc(C)ccc3n2CC(O)c2ccc(C)cc2)C1 (single isomer, unassigned) [203a]", 36),
    ("Cc1ccc2c(c1)c1c(n2CC(O)c2ccncc2Cl)CCN(C)C1 (single isomer, unassigned) [135a]", 42),
    ("Cc1ccc(CCn2c3c(c4cc(Cl)cnc42)C2CCCN2CC3)cn1 (single isomer, unassigned) [137a]", 104),
    ("Cc1ccc2c(c1)c1c(n2CC(N=[N+]=[N-])c2ccc(F)cc2F)CCN(C)CC1 (single isomer, unassigned) [V-21b]", 93),
    ("Cc1ccc2c(c1)c1c(n2CC(O)c2ccc(F)cc2F)CCN(C)CC1 (single isomer, unassigned) [172a]", 65),
    ("Cc1ccc2c(c1)c1c(n2CC(C)(O)c2ccc(C)nc2)CCN2CCCC12 (single isomer, unassigned) [II-128b]", 106),
]
